- Tested on: human T-lymphocyte (CEM) cells
- assay.protocol: Cytostatic activity, CEM cell proliferation
- Assay type: cell-based
- reported.conditions: mean ± SD of three experiments; highest concentration tested 250 µM; 3 days; read-out: Toxicity (IC50) CEM
measurement.name: IC50 (µM)
Give bare numbers, in µM.

Worked examples follow.
{"columns": ["compound", "meas.value"],
 "data": [
  ["CN[C@H](CC(C)C)C(=O)N[C@H]1C(=O)N[C@@H](CC(N)=O)C(=O)N[C@H]2C(=O)N[C@H]3C(=O)N[C@H](C(=O)N[C@H](C(=O)NCCCNC(=O)c4ccc5ccccc5c4)c4cc(O)cc(O)c4-c4cc3ccc4O)[C@H](O)c3ccc(c(Cl)c3)Oc3cc2cc(c3O[C@@H]2O[C@H](CO)[C@@H](O)[C@H](O)[C@H]2O[C@H]2C[C@](C)(N)[C@H](O)[C@H](C)O2)Oc2ccc(cc2Cl)[C@H]1O", 229],
  ["CNC(CC(C)C)C(=O)NC1C(=O)NC(CC(N)=O)C(=O)NC2C(=O)NC3C(=O)NC(C(=O)NC(C(=O)NCCCNC(=O)c4ccc(-c5ccc(F)cc5)cc4)c4cc(O)cc(O)c4-c4cc3ccc4O)C(O)c3ccc(c(Cl)c3)Oc3cc2cc(c3OC2OC(CO)C(O)C(O)C2OC2CC(C)(N)C(O)C(C)O2)Oc2ccc(cc2Cl)C1O (stereo not drawn)", 34]
]}

Could you now look at the following compound, please?
Task: Give IC50 for the following compound: CCCCC#Cc1ccc(NC(=O)CNC(=O)[C@H]2NC(=O)[C@H]3NC(=O)[C@H](NC(=O)[C@@H]4NC(=O)[C@H](CC(N)=O)NC(=O)[C@H](NC(=O)[C@@H](CC(C)C)NC)[C@H](O)c5ccc(c(Cl)c5)Oc5cc4cc(c5O[C@@H]4O[C@H](CO)[C@@H](O)[C@H](O)[C@H]4O[C@H]4C[C@](C)(N)[C@H](O)[C@H](C)O4)Oc4ccc(cc4Cl)[C@H]3O)c3ccc(O)c(c3)-c3c(O)cc(O)cc32)cc1
Output: 24

----------
Consider the following compounds; for each one, report its pIC50.
- Tested on: L1210, CEM and HeLa cell lines
- assay.protocol: Cytostatic activity, average or summary over L1210, CEM and HeLa
- Format: cell-based
- reported.conditions: average of L1210, CEM and HeLa; read-out: Toxicity (IC50) Average
pIC50: −log10 of the molar value.

{"columns": ["structure.smiles", "pIC50"],
 "data": [
  ["CN[C@H](CC(C)C)C(=O)N[C@H]1C(=O)N[C@@H](CC(N)=O)C(=O)N[C@H]2C(=O)N[C@H]3C(=O)N[C@H](C(=O)N[C@H](C(=O)NCC(=O)Nc4cccc5ccccc45)c4cc(O)cc(O)c4-c4cc3ccc4O)[C@H](O)c3ccc(c(Cl)c3)Oc3cc2cc(c3O[C@@H]2O[C@H](CO)[C@@H](O)[C@H](O)[C@H]2O[C@H]2C[C@](C)(N)[C@H](O)[C@H](C)O2)Oc2ccc(cc2Cl)[C@H]1O", "< 3.60"]
]}

Task: Give pIC50 for the following compound: CN[C@H](CC(C)C)C(=O)N[C@H]1C(=O)N[C@@H](CC(N)=O)C(=O)N[C@H]2C(=O)N[C@H]3C(=O)N[C@H](C(=O)N[C@H](C(=O)NCC(=O)Nc4ccccc4)c4cc(O)cc(O)c4-c4cc3ccc4O)[C@H](O)c3ccc(c(Cl)c3)Oc3cc2cc(c3O[C@@H]2O[C@H](CO)[C@@H](O)[C@H](O)[C@H]2O[C@H]2C[C@](C)(N)[C@H](O)[C@H](C)O2)Oc2ccc(cc2Cl)[C@H]1O
Output: < 3.60

src = paper PMC6001238
